Experiment: Pharmacokinetics of IV formulation in humans (Phase I, advanced solid tumors)
Type: in vivo
Details: human, plasma, 32 mg, IV infusion approx. 2 hour, 32 mg, Study Day 15, mean, N 2
Observable: AUC(0-inf) (ng·h/mL)

* Nc1ncc(-c2cnn(CCO)c2)c2scc(-c3ccc(NC(=O)Nc4cccc(F)c4)cc3)c12 | 8620

###

Test: Solubility of free base in various media
Type: physicochemical
Conditions: PEG 400, organic solvent or mixture; read-out: Solubility
Observable: solubility (mg/mL)

• Nc1ncc(-c2cnn(CCO)c2)c2scc(-c3ccc(NC(=O)Nc4cccc(F)c4)cc3)c12 = 20.9

###

Test: Pharmacokinetics of IV formulation in humans (Phase I, advanced solid tumors)
Assay type: in vivo
Conditions: human, plasma, 8 mg, IV infusion approx. 2 hour, 8 mg, Study Day 1, mean ± SD, N 4
Observable: Tmax (h)

• Nc1ncc(-c2cnn(CCO)c2)c2scc(-c3ccc(NC(=O)Nc4cccc(F)c4)cc3)c12 [API] = 1.9

###

Assay: Pharmacokinetics of IV formulation in humans (Phase I, advanced solid tumors)
Type: in vivo
Conditions: human, plasma, 32 mg, IV infusion approx. 2 hour, 32 mg, Study Day 1, harmonic mean, N 2
Observable: half-life (h)

* Nc1ncc(-c2cnn(CCO)c2)c2scc(-c3ccc(NC(=O)Nc4cccc(F)c4)cc3)c12 | 8.9

###

Assay: Solubility of free base in PEG-300/Cremophor EL/Ethanol vehicles
Type: physicochemical
Conditions: PEG-300/Cremophor EL/Ethanol 47.5/47.5/5, organic solvent or mixture; PEG-300/Cremophor EL/Ethanol ratio 47.5/47.5/5; 5° C.; read-out: Solubility (mg/mL) at 5° C.
Observable: solubility (mg/mL)

* Nc1ncc(-c2cnn(CCO)c2)c2scc(-c3ccc(NC(=O)Nc4cccc(F)c4)cc3)c12 | 16.4

###

Test: Pharmacokinetics of IV formulation in humans (Phase I, advanced solid tumors)
Assay type: in vivo
Details: human, plasma, 8 mg, IV infusion approx. 2 hour, 8 mg, Study Day 15, mean ± SD, N 4
Observable: AUC(0-inf) (ng·h/mL)

* Nc1ncc(-c2cnn(CCO)c2)c2scc(-c3ccc(NC(=O)Nc4cccc(F)c4)cc3)c12 [API] | 2940

###

Assay: Solubility of free base in various media
Assay type: physicochemical
Conditions: Water (across physiological pH range); read-out: Solubility
Observable: solubility

* Nc1ncc(-c2cnn(CCO)c2)c2scc(-c3ccc(NC(=O)Nc4cccc(F)c4)cc3)c12 | < 0.03 µg/mL

###

Test: Solubility of free base in PEG-300/Cremophor EL/Ethanol vehicles
Assay type: physicochemical
Conditions: PEG-300/Cremophor EL/Ethanol 47.5/47.5/5, organic solvent or mixture; PEG-300/Cremophor EL/Ethanol ratio 47.5/47.5/5; RT; read-out: Solubility (mg/mL) at RT
Observable: solubility (mg/mL)

- Nc1ncc(-c2cnn(CCO)c2)c2scc(-c3ccc(NC(=O)Nc4cccc(F)c4)cc3)c12: 13

###

Experiment: Pharmacokinetics of IV formulation in humans (Phase I, advanced solid tumors)
Type: in vivo
Details: human, plasma, 8 mg, IV infusion approx. 2 hour, 8 mg, Study Day 15, harmonic mean ± pseudo SD, N 4
Experimental: […] Doses were administered on Day 1 and Day 15 of each 28 day cycle with an approximately 2 hour infusion. […] The plasma concentrations of N-(4-{4-amino-7-[1-(2-hydroxyethyl)-1H-pyrazol-4-yl]thieno[3,2-c]pyridin-3-yl}phenyl)-N′-(3-fluorophenyl)urea were determined, and the values for the pharmacokinetic parameters were calculated and shown in Table 7.
Observable: half-life (min)

• Nc1ncc(-c2cnn(CCO)c2)c2scc(-c3ccc(NC(=O)Nc4cccc(F)c4)cc3)c12 = 846

###

Test: Pharmacokinetics of IV formulation in humans (Phase I, advanced solid tumors)
Type: in vivo
Conditions: human, plasma, 32 mg, IV infusion approx. 2 hour, 32 mg, Study Day 15, mean, N 2
Observable: Tmax (h)

* Nc1ncc(-c2cnn(CCO)c2)c2scc(-c3ccc(NC(=O)Nc4cccc(F)c4)cc3)c12 [API] | 2.2

###

Experiment: Solubility of free base in various media
Assay type: physicochemical
Conditions: 10% Cremophor EL in water, aqueous with cosolvent or surfactant or cyclodextrin; read-out: Solubility
Observable: solubility (µg/mL)

• Nc1ncc(-c2cnn(CCO)c2)c2scc(-c3ccc(NC(=O)Nc4cccc(F)c4)cc3)c12 [API] = 106

###

Experiment: Solubility of free base in various media
Type: physicochemical
Conditions: 10% Solutol HS in water, aqueous with cosolvent or surfactant or cyclodextrin; read-out: Solubility
Observable: solubility (µg/mL)

• Nc1ncc(-c2cnn(CCO)c2)c2scc(-c3ccc(NC(=O)Nc4cccc(F)c4)cc3)c12 = 152

###

Assay: Pharmacokinetics of IV formulation in humans (Phase I, advanced solid tumors)
Format: in vivo
Settings: human, plasma, 16 mg, IV infusion approx. 2 hour, 16 mg, Study Day 1, N 1
Description: […] Doses were administered on Day 1 and Day 15 of each 28 day cycle with an approximately 2 hour infusion. […] The plasma concentrations of N-(4-{4-amino-7-[1-(2-hydroxyethyl)-1H-pyrazol-4-yl]thieno[3,2-c]pyridin-3-yl}phenyl)-N′-(3-fluorophenyl)urea were determined, and the values for the pharmacokinetic parameters were calculated and shown in Table 7.
Observable: AUC(0-inf) (ng·h/mL)

• Nc1ncc(-c2cnn(CCO)c2)c2scc(-c3ccc(NC(=O)Nc4cccc(F)c4)cc3)c12 [API] = 2350

###

Assay: Pharmacokinetics of IV formulation in humans (Phase I, advanced solid tumors)
Assay type: in vivo
Settings: human, plasma, 16 mg, IV infusion approx. 2 hour, 16 mg, Study Day 15, N 1
Observable: half-life (h)

• Nc1ncc(-c2cnn(CCO)c2)c2scc(-c3ccc(NC(=O)Nc4cccc(F)c4)cc3)c12 [API] = 12.6

###

Experiment: Pharmacokinetics of IV formulation in humans (Phase I, advanced solid tumors)
Assay type: in vivo
Details: human, plasma, 8 mg, IV infusion approx. 2 hour, 8 mg, Study Day 15, mean ± SD, N 4
Observable: Cmax

• Nc1ncc(-c2cnn(CCO)c2)c2scc(-c3ccc(NC(=O)Nc4cccc(F)c4)cc3)c12 = 246 ng/mL

###

Assay: Pharmacokinetics of IV formulation in humans (Phase I, advanced solid tumors)
Assay type: in vivo
Details: human, plasma, 8 mg, IV infusion approx. 2 hour, 8 mg, Study Day 1, mean ± SD, N 4
Observable: AUC(0-inf)

• Nc1ncc(-c2cnn(CCO)c2)c2scc(-c3ccc(NC(=O)Nc4cccc(F)c4)cc3)c12 = 2960 ng·h/mL

###

Assay: Solubility of free base in PEG-300/Cremophor EL/Ethanol vehicles
Assay type: physicochemical
Conditions: PEG-300/Cremophor EL/Ethanol 45/45/10, organic solvent or mixture; PEG-300/Cremophor EL/Ethanol ratio 45/45/10; RT; read-out: Solubility (mg/mL) at RT
Observable: solubility

• Nc1ncc(-c2cnn(CCO)c2)c2scc(-c3ccc(NC(=O)Nc4cccc(F)c4)cc3)c12 = 11.6 mg/mL

###

Assay: Pharmacokinetics of IV formulation in humans (Phase I, advanced solid tumors)
Assay type: in vivo
Conditions: human, plasma, 32 mg, IV infusion approx. 2 hour, 32 mg, Study Day 1, mean, N 2
Observable: AUC(0-inf) (µg·h/mL)

• Nc1ncc(-c2cnn(CCO)c2)c2scc(-c3ccc(NC(=O)Nc4cccc(F)c4)cc3)c12 = 8.73

###

Assay: Pharmacokinetics of IV formulation in humans (Phase I, advanced solid tumors)
Assay type: in vivo
Settings: human, plasma, 32 mg, IV infusion approx. 2 hour, 32 mg, Study Day 1, mean, N 2
Observable: Cmax (ng/mL)

* Nc1ncc(-c2cnn(CCO)c2)c2scc(-c3ccc(NC(=O)Nc4cccc(F)c4)cc3)c12 [API] | 1310

###

Assay: Pharmacokinetics of IV formulation in humans (Phase I, advanced solid tumors)
Format: in vivo
Details: human, plasma, 8 mg, IV infusion approx. 2 hour, 8 mg, Study Day 15, mean ± SD, N 4
Protocol: […] Doses were administered on Day 1 and Day 15 of each 28 day cycle with an approximately 2 hour infusion. […] The plasma concentrations of N-(4-{4-amino-7-[1-(2-hydroxyethyl)-1H-pyrazol-4-yl]thieno[3,2-c]pyridin-3-yl}phenyl)-N′-(3-fluorophenyl)urea were determined, and the values for the pharmacokinetic parameters were calculated and shown in Table 7.
Observable: Tmax (h)

* Nc1ncc(-c2cnn(CCO)c2)c2scc(-c3ccc(NC(=O)Nc4cccc(F)c4)cc3)c12 | 1.9

###

Experiment: Solubility of free base in various media
Assay type: physicochemical
Details: Propylene Glycol, organic solvent or mixture; read-out: Solubility
Observable: solubility

* Nc1ncc(-c2cnn(CCO)c2)c2scc(-c3ccc(NC(=O)Nc4cccc(F)c4)cc3)c12 [API] | 1200 µg/mL

###

Experiment: Solubility of free base in various media
Type: physicochemical
Details: Cremophor EL, organic solvent or mixture; Cremphor EL; read-out: Solubility
Observable: solubility (µg/mL)

- Nc1ncc(-c2cnn(CCO)c2)c2scc(-c3ccc(NC(=O)Nc4cccc(F)c4)cc3)c12: 7100

Source: patent US20150126545A1
